Values were extracted from the supplement of paper PMC11865577.

The following compounds are listed with their measured normalised indicator fluorescence values.
Test system: hsa-mir-374a loop
Assay: normalised indicator fluorescence (fraction of RNA + indicator signal without compound); higher = less displacement of indicator (weaker competition)
Settings: compound concentration: 5 uM; 30 min; indicator: TO-PRO-3 0.5 uM; RNA concentration: 0.5 uM
Structures can show the parent of a compound that is named as a salt.
Could you respond with only the numeric value?

CN(C)CCCN1c2ccccc2CCc2ccc(Cl)cc21 [Clomipramine hydrochloride]    1.02
Fc1ccc(-c2nc3n(c2-c2ccncc2)CCS3)cc1    1.18
C[C@H]1[C@H](C)CC[C@]2(C(=O)O[C@@H]3O[C@H](CO[C@@H]4O[C@H](CO)[C@@H](O[C@@H]5O[C@H](C)[C@H](O)[C@@H](O)[C@H]5O)[C@H](O)[C@H]4O)[C@@H](O)[C@H](O)[C@H]3O)CC[C@]3(C)C(=CC[C@@H]4[C@@]5(C)C[C@@H](O)[C@H](O)[C@@](C)(CO)[C@@H]5CC[C@]43C)[C@H]12 [Asiaticoside]    1.16
C[C@@H]1O[C@@H](O[C@H]2[C@H](Oc3cc(O)c4c(c3)O[C@H](c3ccc(O)cc3)CC4=O)O[C@H](CO)[C@@H](O)[C@@H]2O)[C@H](O)[C@H](O)[C@H]1O    1.21

# input for lookup
INPUT: Answer with reported normalised indicator fluorescence of `COc1ccc(-c2nc(-c3cc(C(F)(F)F)cc(C(F)(F)F)c3)n(Cc3ccc(C(N)=O)cc3)c2-c2ccc(OC)cc2)cc1`
OUTPUT: 1.36
